Measured growth, listed per entry for reference.
- System: KM12 colon
- assay comment: NCI-60 one-dose screen, 48 h (100 = growth as untreated, 0 = no growth, -100 = all killed)
- condition details: 10 µM
This is part of a sample that, as a whole, favours compounds with a hit. Of some 83,000 tested, about 20% had one in any assay.
Numeric answer only, unit % assumed.

Example results:
CCOC(=O)C1=C(Nc2ccccc2)C(=O)OC12C(=O)Nc1ccccc12 (configuration not stated) | 105
CC[C@]12C=CCN3CC[C@@]4(c5ccc(OC)cc5N(C)[C@H]4[C@@](O)(C(=O)OC)[C@@H]1OC(=O)CCC[P+](C1CCCCC1)(C1CCCCC1)C1CCCCC1)[C@@H]32 | -63.4
CC12OOC(C)(OO1)C2CCC(=O)OCCNc1ccnc2cc(Cl)ccc12 (configuration not stated) | 60.6
CC1=C(C=O)C2=C(C)C3(CC3)[C@@](C)(O)C(=O)C2=C1 | 16.3
C[C@H]1[C@H](OC(=O)CCC(=O)N(CCCc2cn(-c3ccc(CN4CCOCC4)cc3)nn2)CCNc2ccnc3cc(Cl)ccc23)O[C@@H]2OC3(C)CC[C@H]4[C@H](C)CC[C@@H]1[C@@]24OO3 | 24.7
COCCOCCOCCOc1ccc(-n2cc(CCCN(CCNc3ccnc4cc(Cl)ccc34)C(=O)CCC(=O)O[C@@H]3O[C@@H]4OC5(C)CC[C@H]6[C@H](C)CC[C@@H]([C@H]3C)[C@@]46OO5)nn2)cc1 | 28.6

Let us move to another entry and its growth.
Using the record for O=C(/C=C/c1ccc(Cl)cc1Cl)c1nc2ccccc2n1Cc1ccc(F)cc1 , report its growth.
53

====

- Test system: SK-OV-3 ovarian
- assay comment: NCI-60 one-dose screen, 48 h
- condition details: 10 µM
Compounds without any hit were thinned out: in the full panel of roughly 83,000, 20% have a hit. The source made the active and inactive calls. The calls were made as follows: active = growth percent below 10; inactive = the rest.
Select the correct class. Options are Yes = active, No = inactive and nothing else.

Some solved cases for reference:
COc1ccc(/C=C/C(=O)c2nc3ccccc3n2Cc2ccc(Br)cc2)cc1 | No
CC12OOC(C)(OO1)C2CCC(=O)NCCCNc1ccnc2cc(Cl)ccc12 (configuration not stated) | No
CC1=C(COCCOC(=O)c2ccc(S(=O)(=O)F)cc2)C2=C(C)C3(CC3)[C@@](C)(O)C(=O)C2=C1 | Yes
Cc1ccc2[nH]c(=S)n(-c3ccc(F)cc3)c(=O)c2c1 | No
COc1cc(OC)c(/C=C/C(=O)c2nc3ccccc3n2Cc2ccc(F)cc2)c(OC)c1 | No
CC[C@]12C=CCN3CC[C@@]4(c5ccc(OC)cc5N(C)[C@H]4[C@@](O)(C(=O)OC)[C@@H]1OC(=O)CCCC[P+](C1CCCCC1)(C1CCCCC1)C1CCCCC1)[C@@H]32 | Yes
COC(=O)CCn1c(-c2ccc(-n3cc(-c4ccc(O[C@H]5O[C@@H]6OC7(C)CC[C@H]8[C@H](C)CC[C@@H]([C@H]5C)[C@@]68OO7)cc4)nn3)cc2)nc2ccccc21 | No
O=C(/C=C/c1ccc(Cl)cc1)c1nc2ccccc2n1Cc1ccc(F)cc1 | No
O=C(/C=C/c1ccccc1)c1nc2ccccc2n1Cc1ccc(F)cc1 | No
O=C(/C=C/c1ccccc1Cl)c1nc2ccccc2n1Cc1ccc(F)cc1 | Yes

Next molecule, please.
Hey, what did the test say about COC(=O)C[C@](O)(CCC(C)C)C(=O)O[C@H]1C(OC)=C[C@@]23CCCN2CCc2cc4c(cc2[C@@H]13)OCO4 ?
Yes
